Data origin, for the record: patent US20230002361A1

target: MDR1 (P-gp) (Homo sapiens, UniProt P08183); construct: host or cells: MDCK cells; experiment: MDR1-MDCK assay (efflux ratio); format: in vitro ADME; conditions: human, MDCK-MDR1, 1 μM compound, 120 minutes incubation; read-out: MDR1-MDCK Efflux Ratio; (B-A/A-B)
Sequence (P08183 whole entry): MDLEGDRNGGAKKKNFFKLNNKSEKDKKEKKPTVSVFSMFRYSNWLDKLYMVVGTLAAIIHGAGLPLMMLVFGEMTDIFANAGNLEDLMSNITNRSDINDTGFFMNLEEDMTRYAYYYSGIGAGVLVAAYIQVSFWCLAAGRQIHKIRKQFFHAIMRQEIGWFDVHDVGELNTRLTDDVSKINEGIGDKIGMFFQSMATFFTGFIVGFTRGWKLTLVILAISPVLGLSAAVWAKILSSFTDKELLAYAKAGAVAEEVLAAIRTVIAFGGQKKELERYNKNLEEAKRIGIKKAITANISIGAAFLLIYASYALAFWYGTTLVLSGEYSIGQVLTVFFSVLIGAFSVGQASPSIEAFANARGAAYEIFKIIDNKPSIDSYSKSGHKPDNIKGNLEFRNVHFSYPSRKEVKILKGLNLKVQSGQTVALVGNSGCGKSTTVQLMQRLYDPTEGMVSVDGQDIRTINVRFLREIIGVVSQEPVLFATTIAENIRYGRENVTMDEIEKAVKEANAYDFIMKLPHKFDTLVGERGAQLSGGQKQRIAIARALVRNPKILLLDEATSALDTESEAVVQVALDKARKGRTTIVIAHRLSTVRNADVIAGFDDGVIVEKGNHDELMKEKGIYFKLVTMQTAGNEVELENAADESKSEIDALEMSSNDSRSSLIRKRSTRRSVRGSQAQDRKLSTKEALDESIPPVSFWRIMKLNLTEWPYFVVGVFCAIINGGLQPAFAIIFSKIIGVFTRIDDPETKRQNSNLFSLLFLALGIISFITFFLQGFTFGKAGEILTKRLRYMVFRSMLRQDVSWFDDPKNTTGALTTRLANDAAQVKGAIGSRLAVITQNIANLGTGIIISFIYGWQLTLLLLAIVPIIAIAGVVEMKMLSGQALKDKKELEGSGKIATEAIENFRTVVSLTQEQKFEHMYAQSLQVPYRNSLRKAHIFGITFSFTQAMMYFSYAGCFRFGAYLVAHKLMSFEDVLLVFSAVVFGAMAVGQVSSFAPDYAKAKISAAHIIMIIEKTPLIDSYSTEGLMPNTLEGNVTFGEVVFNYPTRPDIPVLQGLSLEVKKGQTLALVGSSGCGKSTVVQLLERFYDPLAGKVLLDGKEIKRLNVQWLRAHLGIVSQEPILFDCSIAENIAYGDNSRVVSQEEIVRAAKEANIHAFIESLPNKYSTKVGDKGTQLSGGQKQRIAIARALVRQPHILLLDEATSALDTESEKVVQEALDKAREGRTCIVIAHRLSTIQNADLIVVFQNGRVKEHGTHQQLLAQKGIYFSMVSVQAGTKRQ
observed property: efflux ratio at 120 min, 1 μM
One number for each entry.

- CC(C)Oc1nc2nn(C[C@H]3CCOC3)cc2cc1C(=O)Nc1cccc2ccnn12 (single isomer, unassigned) [Example 53]: 1
- CC(C)Oc1cc2nn(C3CCOCC3)cc2cc1C(=O)Nc1cccn2nccc12.Cl [Example 71]: 1.6
- CC(C)Oc1cc2nn(C34CCC(C)(C3)OC4)cc2cc1C(=O)Nc1cnn2cccnc12 (stereo not shown) [Example 98]: 1

For every item in the list below, what is its measured efflux ratio at 120 min, 1 μM?
1. COc1cccc(NC(=O)c2cc3cn(C[C@@H]4CCOC4)nc3cc2OC)n1 (single isomer, unassigned) [Example 22]
2. COCCC(C)n1cc2cc(C(=O)Nc3cccc(C(F)F)n3)c(OC(C)C)cc2n1.Cl (stereo not shown) [Example 59]
3. CC(C)Oc1cc2nn(C[C@@H]3CCOC3)cc2cc1C(=O)Nc1cccc(C(F)F)n1 (single isomer, unassigned) [Example 21]
4. Cc1cnc2c(NC(=O)c3cc4cn(C56COC(C)(C5)C6)nc4cc3OC(C)C)cnn2c1 [Example 94]

1. 0.6
2. 0.4
3. 0.7
4. 1.4
